Sourced from patent US11578110B2

System: hMSCs
Experiment: STRO-1 stemness marker expression in hMSCs (immunostaining, ImageJ quantification)
Type: cell-based, Human
Conditions: SEQ ID NO: 1 to 49 tested in combination with a bioactive carrier (titanium, ceramics, PEEK, hydrogel, etc.)
Procedure: The cells were first fixed for 20 min with 4% paraformaldehyde/PBS at 4° C. After fixation, the cells were permeabilized in PBS containing 1% Triton X-100 for 15 min. […] For this type of quantification the freeware image analysis ImageJ® software was used. […] Threshold values were determined empirically by selecting a setting, which gave the most accurate binary image for a subset of randomly selected photomicrographs. The cell area was determined by manual delineation on raw fluorescent images. […]
observation_type: STRO-1 expression (%)

INSERT INTO measurements (sequence_record, assay_target, observation_type, unit, measurement) VALUES
  ('RNVQSRPTQVQLNAISVLYF [SEQ ID NO: 11]', 'hMSCs', 'STRO-1 expression', '%', 24),
  ('AVPKASSAPTKLEPLPIVYY [SEQ ID NO: 36]', 'hMSCs', 'STRO-1 expression', '%', 21),
  ('AVPKASSAPTKLSAISMLYL [SEQ ID NO: 19]', 'hMSCs', 'STRO-1 expression', '%', 19),
  ('STPPTSSSRVRLRSVKVAKV [SEQ ID NO: 38]', 'hMSCs', 'STRO-1 expression', '%', 34),
  ('GSAGPSSVPTKMSAISMLYL [SEQ ID NO: 1]', 'hMSCs', 'STRO-1 expression', '%', 21),
  ('AAPASSSVPTRLSAISMLYL [SEQ ID NO: 2]', 'hMSCs', 'STRO-1 expression', '%', 18),
  ('GTPGPVPTEESAISMLYL (GFR-binding peptide) [SEQ ID NO: 28]', 'hMSCs', 'STRO-1 expression', '%', 22),
  ('HVPKPSSVPTKLSPISVLYK [SEQ ID NO: 16]', 'hMSCs', 'STRO-1 expression', '%', 23),
  ('GSAGPSSVPEKMSSLSILFF [SEQ ID NO: 42]', 'hMSCs', 'STRO-1 expression', '%', 26),
  ('GTPGPASSVPTKLSAISMLYL (GTPGPAXXVPTKLSAISMLYL; GFR-binding peptide; MOD_RES (7)..(8): Xaa is C or S) [SEQ ID NO: 26]', 'hMSCs', 'STRO-1 expression', '%', 23);
